- system.name: OCT2 (SLC22A2) (Homo sapiens)
- Sequence (O15244 whole entry): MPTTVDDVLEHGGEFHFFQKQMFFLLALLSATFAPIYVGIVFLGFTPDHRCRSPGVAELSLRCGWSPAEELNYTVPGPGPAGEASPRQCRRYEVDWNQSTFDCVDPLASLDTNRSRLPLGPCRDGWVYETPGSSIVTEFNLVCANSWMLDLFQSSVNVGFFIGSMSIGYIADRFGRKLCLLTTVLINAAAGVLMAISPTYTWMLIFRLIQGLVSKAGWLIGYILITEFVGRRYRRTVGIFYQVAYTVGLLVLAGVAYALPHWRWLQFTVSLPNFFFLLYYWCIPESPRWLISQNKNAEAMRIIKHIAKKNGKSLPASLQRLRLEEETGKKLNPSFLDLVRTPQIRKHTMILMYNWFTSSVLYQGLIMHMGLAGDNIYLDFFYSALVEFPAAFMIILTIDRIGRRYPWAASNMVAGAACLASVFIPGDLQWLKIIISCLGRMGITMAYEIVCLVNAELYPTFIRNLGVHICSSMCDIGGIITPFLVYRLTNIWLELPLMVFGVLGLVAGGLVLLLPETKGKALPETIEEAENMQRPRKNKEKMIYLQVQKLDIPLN
- assay.procedure: Cellular uptake in human HEK293 cells assessed as human OCT2-mediated drug transport at 2.5 uM after 4 mins by LC-MS/MS analysis relative to passive uptake
- Type: ADME, cell-based
- measurement.parameters: HEK293 cells expressing human OCT2, read-out: FC
measured.property: uptake ratio at 4 min, 2.5 µM

compound="[H]/N=C(/N)N/C(=N/[H])NCCc1ccccc1 [PHENFORMIN]" system_name="OCT2 (SLC22A2) (Homo sapiens)" qualifier_symbol=> measured_number=35
compound="CC(C)(C)NCC(O)c1ccc(O)c(CO)c1 (stereo unspecified) [ALBUTEROL]" system_name="OCT2 (SLC22A2) (Homo sapiens)" qualifier_symbol== measured_number=15
compound=NCCOc1ccccc1-c1nc(C(N)=O)c(NC(N)=O)s1 system_name="OCT2 (SLC22A2) (Homo sapiens)" qualifier_symbol== measured_number=1.3
compound=NC(=O)Nc1sc(-c2ccccc2O[C@H]2CCNC2)cc1C(N)=O system_name="OCT2 (SLC22A2) (Homo sapiens)" qualifier_symbol== measured_number=1.9
compound="CNC(=C[N+](=O)[O-])NCCSCc1ccc(CN(C)C)o1 [RANITIDINE]" system_name="OCT2 (SLC22A2) (Homo sapiens)" qualifier_symbol== measured_number=1.6
compound="NC(=O)Nc1sc(-c2cccc(OC3CCNC3)c2)cc1C(N)=O (racemic)" system_name="OCT2 (SLC22A2) (Homo sapiens)" qualifier_symbol== measured_number=1.6

* * *

- system.name: UniProtKB O15244
- Sequence (O15244 whole entry): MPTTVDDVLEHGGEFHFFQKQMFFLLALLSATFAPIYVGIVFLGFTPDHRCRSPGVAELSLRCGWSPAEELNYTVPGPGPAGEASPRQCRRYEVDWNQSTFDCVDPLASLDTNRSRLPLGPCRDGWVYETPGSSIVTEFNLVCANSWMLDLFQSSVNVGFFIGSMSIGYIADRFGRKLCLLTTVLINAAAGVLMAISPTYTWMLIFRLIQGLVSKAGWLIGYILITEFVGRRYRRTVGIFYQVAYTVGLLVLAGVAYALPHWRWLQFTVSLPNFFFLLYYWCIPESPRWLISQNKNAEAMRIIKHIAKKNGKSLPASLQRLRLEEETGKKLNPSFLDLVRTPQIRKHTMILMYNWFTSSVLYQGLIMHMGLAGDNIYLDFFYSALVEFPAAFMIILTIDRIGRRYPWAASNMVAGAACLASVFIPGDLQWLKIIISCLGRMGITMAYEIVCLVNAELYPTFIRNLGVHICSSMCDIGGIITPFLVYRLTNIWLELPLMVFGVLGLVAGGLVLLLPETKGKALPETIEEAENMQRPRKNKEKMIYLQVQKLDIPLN
- assay.procedure: Cellular uptake in human HEK293 cells assessed as human OCT2-mediated drug transport at 2.5 uM after 4 mins by LC-MS/MS analysis relative to passive uptake
- Format: ADME, cell-based
- measurement.parameters: HEK293 cells expressing human OCT2, read-out: FC
Listed here are molecules together with their documented uptake ratio at 4 min, 2.5 µM.
measured.property: uptake ratio at 4 min, 2.5 µM

molecule="N=C(N)NC(=O)c1nc(Cl)c(N)nc1N [AMILORIDE]" measured_property="uptake ratio at 4 min, 2.5 µM" measured_number=74
molecule=NC(=O)Nc1sc(-c2ccccc2OC2CCNCC2)cc1C(N)=O measured_property="uptake ratio at 4 min, 2.5 µM" measured_number=1.8
molecule="NC(=O)Nc1sc(-c2ccc(OC3CCNC3)cc2)cc1C(N)=O (racemic)" measured_property="uptake ratio at 4 min, 2.5 µM" measured_number=1.4
molecule="CCC(NC(C)C)C(O)c1ccc(O)c2[nH]c(=O)ccc12 (centres undefined) [PROCATEROL]" measured_property="uptake ratio at 4 min, 2.5 µM" measured_number=1.9

* * *

- system.name: OCT1 (SLC22A1) (Homo sapiens)
- Sequence (O15245 whole entry): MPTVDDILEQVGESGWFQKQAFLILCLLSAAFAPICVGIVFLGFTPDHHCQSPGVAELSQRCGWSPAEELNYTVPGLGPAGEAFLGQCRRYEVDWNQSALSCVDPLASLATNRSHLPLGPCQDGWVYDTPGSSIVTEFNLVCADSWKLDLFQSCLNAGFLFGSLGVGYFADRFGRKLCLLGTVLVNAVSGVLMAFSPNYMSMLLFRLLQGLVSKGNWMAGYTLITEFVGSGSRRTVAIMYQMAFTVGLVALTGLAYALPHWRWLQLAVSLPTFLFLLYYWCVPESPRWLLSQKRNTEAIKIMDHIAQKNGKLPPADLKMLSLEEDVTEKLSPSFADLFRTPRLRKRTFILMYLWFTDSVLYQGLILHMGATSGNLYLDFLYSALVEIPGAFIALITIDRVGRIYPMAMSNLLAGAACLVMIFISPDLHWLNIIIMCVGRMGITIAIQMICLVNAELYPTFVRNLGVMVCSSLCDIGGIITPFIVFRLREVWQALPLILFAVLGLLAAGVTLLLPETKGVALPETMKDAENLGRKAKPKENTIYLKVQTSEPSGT
- assay.procedure: Cellular uptake in human HEK293 cells assessed as human OCT1-mediated drug transport at 2.5 uM after 4 mins by LC-MS/MS analysis relative to passive uptake
- Assay type: ADME, cell-based
- measurement.parameters: HEK293 cells expressing human OCT1, read-out: FC
Here the recorded uptake ratio at 4 min, 2.5 µM is given for each entry.
measured.property: uptake ratio at 4 min, 2.5 µM

compound="O=C(NCCNCC(O)COc1ccc(O)cc1)N1CCOCC1 (stereo not drawn)" measured_number=43
compound="CC[N+](C)(CC)CCOC(=O)C(O)(c1ccccc1)C1CCCCC1 (stereo not drawn)" measured_number=25
compound=NCCOc1ccccc1-c1nc(C(N)=O)c(NC(N)=O)s1 measured_number=13
compound=NCCCOc1ccccc1-c1nc(C(N)=O)c(NC(N)=O)s1 measured_number=14
compound="N#Cc1ccc(OC2CCNC2)c(-c2cc(C(N)=O)c(NC(N)=O)s2)c1 (racemic)" measured_number=39
compound=CN/C(=N/CCSCc1nc[nH]c1C)NC#N measured_number=6.5
compound="CC(C)(C)NCC(O)c1ccc(O)c(CO)c1 (stereo not drawn)" measured_number=11
compound=CNS(=O)(=O)Cc1ccc2[nH]cc(CCN(C)C)c2c1 measured_number=15
